molecular target: EZH2 (rPRC2) (Homo sapiens); experiment: EZH2 assay: rPRC2, biotinylated oligonucleosomes, 3H SAM methyl transfer (FlashPlate scintillation); type: biochemical; conditions: EZH2 IC50, wild-type EZH2 (rPRC2), biotinylated oligonucleosome substrate
Sequence (Q15910 whole entry): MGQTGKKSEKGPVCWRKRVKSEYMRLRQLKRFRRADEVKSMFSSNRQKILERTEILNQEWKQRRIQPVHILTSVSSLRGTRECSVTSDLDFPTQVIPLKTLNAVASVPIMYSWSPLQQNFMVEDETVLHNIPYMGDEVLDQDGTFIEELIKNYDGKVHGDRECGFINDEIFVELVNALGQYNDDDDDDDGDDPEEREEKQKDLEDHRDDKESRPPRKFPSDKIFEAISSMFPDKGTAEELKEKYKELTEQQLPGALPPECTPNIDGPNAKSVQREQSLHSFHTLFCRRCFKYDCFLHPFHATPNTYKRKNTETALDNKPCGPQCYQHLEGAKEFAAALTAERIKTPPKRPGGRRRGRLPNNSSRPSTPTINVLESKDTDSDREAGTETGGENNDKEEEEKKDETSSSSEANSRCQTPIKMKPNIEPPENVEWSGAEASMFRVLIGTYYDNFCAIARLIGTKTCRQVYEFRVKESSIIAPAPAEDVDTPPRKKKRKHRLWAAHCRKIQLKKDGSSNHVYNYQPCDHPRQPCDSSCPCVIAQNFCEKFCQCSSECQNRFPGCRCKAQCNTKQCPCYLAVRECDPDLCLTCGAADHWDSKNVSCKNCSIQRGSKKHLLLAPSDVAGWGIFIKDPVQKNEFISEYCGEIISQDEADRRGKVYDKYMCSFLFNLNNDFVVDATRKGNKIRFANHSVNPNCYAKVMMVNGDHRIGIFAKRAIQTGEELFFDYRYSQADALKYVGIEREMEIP
Sequence (O75530 whole entry partner): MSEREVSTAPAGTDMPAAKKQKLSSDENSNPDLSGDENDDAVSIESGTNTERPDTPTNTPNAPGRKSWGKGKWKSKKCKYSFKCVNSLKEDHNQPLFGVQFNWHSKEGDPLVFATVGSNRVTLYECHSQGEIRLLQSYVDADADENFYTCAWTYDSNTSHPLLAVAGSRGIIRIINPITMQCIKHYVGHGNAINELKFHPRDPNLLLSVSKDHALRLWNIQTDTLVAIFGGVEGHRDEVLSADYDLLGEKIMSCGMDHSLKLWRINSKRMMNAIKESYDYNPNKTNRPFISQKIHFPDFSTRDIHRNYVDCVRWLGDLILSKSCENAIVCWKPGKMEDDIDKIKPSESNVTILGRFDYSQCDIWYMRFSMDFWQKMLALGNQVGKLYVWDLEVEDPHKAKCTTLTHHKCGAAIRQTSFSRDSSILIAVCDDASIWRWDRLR
Sequence (Q15022 whole entry partner): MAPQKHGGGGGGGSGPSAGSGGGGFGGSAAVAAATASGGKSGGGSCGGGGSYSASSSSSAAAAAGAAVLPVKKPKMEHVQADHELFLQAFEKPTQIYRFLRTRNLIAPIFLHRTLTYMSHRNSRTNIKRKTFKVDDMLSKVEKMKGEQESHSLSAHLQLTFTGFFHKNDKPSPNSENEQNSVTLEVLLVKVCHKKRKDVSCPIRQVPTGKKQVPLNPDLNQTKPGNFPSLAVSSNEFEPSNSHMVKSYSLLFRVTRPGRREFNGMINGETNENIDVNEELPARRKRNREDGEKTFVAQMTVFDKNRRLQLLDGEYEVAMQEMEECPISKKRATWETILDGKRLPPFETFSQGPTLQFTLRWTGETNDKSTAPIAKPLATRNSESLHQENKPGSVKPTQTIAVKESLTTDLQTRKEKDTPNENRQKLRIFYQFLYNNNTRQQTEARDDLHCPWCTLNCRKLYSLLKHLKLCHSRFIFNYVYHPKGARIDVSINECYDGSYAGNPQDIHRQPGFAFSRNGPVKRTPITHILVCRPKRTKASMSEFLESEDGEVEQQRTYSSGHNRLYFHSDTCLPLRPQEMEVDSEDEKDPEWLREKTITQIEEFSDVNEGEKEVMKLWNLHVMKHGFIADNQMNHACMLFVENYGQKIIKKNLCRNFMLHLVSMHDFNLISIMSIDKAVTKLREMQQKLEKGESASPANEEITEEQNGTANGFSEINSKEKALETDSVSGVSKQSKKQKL
Measured IC50 accompanies every entry in the list below.

Take a look at these entries with their results.
MOLECULE: COc1cc(C)[nH]c(=O)c1CNC(=O)c1c(C)n(C2CCN(C(=O)OC(C)(C)C)CC2)c2ccccc12 [Compound 331]
TEST_SYSTEM: EZH2 (rPRC2) (Homo sapiens)
REPORTED_RESULT: < 100 nM

MOLECULE: CC[C@@H](C)n1c(C)c(C(=O)NCc2c(C)cc(C)[nH]c2=O)c2cnc(C(C)C)nc21 [Compound 197]
TEST_SYSTEM: EZH2 (rPRC2) (Homo sapiens)
REPORTED_RESULT: 100 to 1000 nM

MOLECULE: COCC(C)n1c(C)c(C(=O)NCc2c(OC)cc(C)[nH]c2=O)c2cccnc21 (single isomer, unassigned) [Compound 256]
TEST_SYSTEM: EZH2 (rPRC2) (Homo sapiens)
REPORTED_RESULT: < 100 nM

IC50 reading for CCC(C)n1c(C)c(C(=O)NCc2c(C)cc(C)[nH]c2=O)c2cccnc21 (single isomer, unassigned) [Compound 195] : 100 to 1000 nM

IC50 reading for COC[C@@H](C)n1c(C)c(C(=O)NCc2c(OC)cc(C)[nH]c2=O)c2cncnc21 [Compound 303] : < 100 nM
